B1: glmS ribozyme (parent)
chain: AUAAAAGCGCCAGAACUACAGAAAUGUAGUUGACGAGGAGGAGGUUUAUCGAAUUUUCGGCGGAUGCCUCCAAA

variants of: B1; test: self-cleavage kobs at 10000 uM GlcN6P; higher = faster cleavage; RNA array; settings: with glucosamine-6-phosphate
This sample holds only a part of the variants without activity.
# class assignment by measured self-cleavage kobs at 10000 uM GlcN6P: low class (below 0.0001 s⁻¹), middle class (0.0001 s⁻¹ to below 0.0006 s⁻¹), high class (0.0006 s⁻¹ or more)

sequence_record="AUAAAAGCGCCAGAACUACAGAAAUGUAGUUGACUAGGAGUAGGUUUAUCGAAUUUUCGGCGGAUGCCUUCAAA [G35U G41U C70U]" category="low class"

input: Determine which band this variant sits in: AUAAAAGCGCCAGAACUACAGAAAUGUAGUUGACGAGGAGGAGGUCUAUCGAAUUUUCGGCGGAUGCUUCCAAA [U46C C68U]
output: high class

input: Exam item: assign AUAAAAGCGCCAGUACUACAGAAAUGUAGUUGACGAGGAGGAGGUUUAUCGAAUCUUCGGCGGAUGACUAUAAA [A14U U55C C67A C70A C71U] to the correct category.
output: low class

input: // bin(item) where item = AUAAAAGCGCCAGGUCUACAGAAAUGUAGUUGACGAGGAUGAGGUUUAUCGAAUUUUCGGCGGAUGCCUCCAAA [A14G A15U G40U]
output: high class

input: Using the reported self-cleavage kobs at 10000 uM GlcN6P, which band applies to AUAAAAGGGCCAGAAGUACAGAAAUGUAGUUGACGAGGAGGAGGUUUAUCGAAUUUUCGGCGGAUGCCUCCAAA [C8G C16G] ?
output: low class
